B1: MLL5 (parent)
chain: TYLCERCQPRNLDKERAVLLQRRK

Variants of: B1
Test: protein stability index of a GFP-peptide fusion (GPS, HEK-293T) (PSI 1-6); higher = more stable;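 further: lentivirally expressed fusions sorted by FACS into six bins by GFP to DsRed ratio, PSI derived from sequencing read proportions per bin multiplied by bin number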
Settings: c terminus: a fixed tail appended
attribute measured: protein stability index

[
  {
    "mutation name": "N11M",
    "result value": 2.04
  },
  {
    "mutation name": "R22Y",
    "result value": 1.97
  },
  {
    "mutation name": "Q21S",
    "result value": 1.99
  }
]
